From: ChEMBL document CHEMBL5058564

- System: HEK-293T
- MEASUREMENT DESCRIPTION: Incucyte cell viability with HEK293T; note: unitless GR value; below 1 slowed growth and below 0 cell loss
- Format: toxicity, cell-based
- CONDITION CONTEXT: human, 0 h, 10 µM, compound concentration 10 uM, replicate number 2, timepoint 0 hours
ASSAY ENDPOINT: Growth Rate
Field format: numeric only.

Examples from the recorded data:
Return the recorded Growth Rate value; entry: Cc1cc(=O)n(C)c2cc(N3C(=O)CC[C@H](NS(=O)(=O)CC(C)C)[C@H]3c3ccc(Cl)cc3)ccc12
0.38

Return the recorded Growth Rate value; entry: O=C(O)CCC/C=C\C[C@H]1C(=O)C[C@@H](O)[C@@H]1/C=C/[C@@H](O)CCc1ccccc1
-0.05

Return the recorded Growth Rate value; entry: O=C(O)Cc1ccccc1Nc1c(Cl)cccc1Cl
0.45

Return the recorded Growth Rate value; entry: Cc1onc(-c2ccccc2Cl)c1C(=O)N(C)c1ccc(Cl)cc1
0.62

Return the recorded Growth Rate value; entry: Cc1cc(C)cc(C(=O)NOCCCCCC(=O)NO)c1
0.38

New cases:
Return the recorded Growth Rate value; entry: CC(C)[C@H](C(=O)Nc1ccc(C(=O)NO)cc1)c1ccccc1
0

Return the recorded Growth Rate value; entry: O=C(O)C(F)(F)F.O=C1NC(=O)/C(=C/c2c[nH]c(=O)c(-c3ccc(N4CCNCC4)nc3)c2)S1
0.65

Return the recorded Growth Rate value; entry: O=c1ccn([C@@H]2O[C@H](COP(=O)([O-])OP(=O)([O-])OP(=O)([O-])OP(=O)([O-])OC[C@H]3O[C@@H](n4ccc(=O)[nH]c4=O)[C@H](O)[C@@H]3O)[C@@H](O)[C@H]2O)c(=O)[nH]1.[Na+].[Na+].[Na+].[Na+] [DIQUAFOSOL TETRASODIUM]
0.4

Return the recorded Growth Rate value; entry: COc1ccc2[nH]cc(CCNC(C)=O)c2c1
0.8

Return the recorded Growth Rate value; entry: CC(/C=C1\SC(=S)N(CCCC(=O)Nc2ccc(C(=O)O)c(O)c2)C1=O)=C\c1ccccc1
0.54

Return the recorded Growth Rate value; entry: Cc1cc(CN)cc(C)c1-c1ncn(C)c1-c1cncn1C
-0.09

Return the recorded Growth Rate value; entry: CN[C@@H](C)C(=O)N[C@H](C(=O)N1CCC[C@H]1C(=O)Nc1snnc1-c1ccccc1)C1CCCCC1
0.53

Return the recorded Growth Rate value; entry: CCOc1ccc(Cc2nc3cc(C(=O)N(CC)CC)ccc3n2CC2CCCCC2)cc1
0.57

Return the recorded Growth Rate value; entry: CCCCC/C=C\C/C=C\C/C=C\C/C=C\CCCC(=O)NCC(=O)O
0.42

Return the recorded Growth Rate value; entry: O=C(O)CCc1ccc(NCc2cccc(Oc3ccccc3)c2)cc1
0.79

Return the recorded Growth Rate value; entry: Cc1ccc(-c2ccc(F)cc2COc2ccc(CCC(=O)O)cc2)cc1
0.55

Return the recorded Growth Rate value; entry: CC(COc1ccccc1)N(CCCl)Cc1ccccc1.Cl (stereo not given) [PHENOXYBENZAMINE HYDROCHLORIDE]
0.07

Return the recorded Growth Rate value; entry: c1ccc(NCc2ccc(CNc3ccccn3)cc2)nc1
0.94

Return the recorded Growth Rate value; entry: O=C1c2c(Br)c(Br)c(Br)c(Br)c2C(=O)N1c1ncc[nH]1
0.87

Return the recorded Growth Rate value; entry: Cl.NCCc1c[nH]c2ccc(O)cc12 [SEROTONIN HYDROCHLORIDE]
0.43

Return the recorded Growth Rate value; entry: CCCN(CCC)CCc1cccc2c1CC(=O)N2.Cl [ROPINIROLE HYDROCHLORIDE]
0.1

Return the recorded Growth Rate value; entry: COc1cc2nc(N3CCN(C(=O)C4CCCO4)CC3)nc(N)c2cc1OC.Cl.O.O (stereo not given) [TERAZOSIN HYDROCHLORIDE]
0.29

Return the recorded Growth Rate value; entry: CCOC(=O)Nc1cc(-c2ccc(C)c(NS(C)(=O)=O)c2)nn2c(C)nnc12
0.66

Return the recorded Growth Rate value; entry: Cc1cnc(CNCC2(F)CCN(C(=O)c3ccc(F)c(Cl)c3)CC2)nc1
0.21

Return the recorded Growth Rate value; entry: Oc1c(CN2CCN(c3ccccn3)CC2)cc(Cl)c2cccnc12
-1

---

- System: Fibroblast
- MEASUREMENT DESCRIPTION: Incucyte cell viability with human fibroblast; note: unitless GR value; below 1 slowed growth and below 0 cell loss
- Format: toxicity, cell-based
- CONDITION CONTEXT: 0 h, 10 µM, compound concentration 10 uM, replicate number 1, timepoint 0 hours
The threshold is -0.5. Values of Growth Rate beneath it are tagged Yes; values meeting or exceeding it are tagged No.

Check out these entries, answers already filled in.
is_below(Growth Rate, -0.5) for OC[C@H]1O[C@@H](n2cnc3c(NC4CCCC4)ncnc32)[C@H](O)[C@@H]1O ?
No

is_below(Growth Rate, -0.5) for CNC[C@H](O)c1ccc(O)c(O)c1 [EPINEPHRINE] ?
No

is_below(Growth Rate, -0.5) for Cc1cnc(CNCC2(F)CCN(C(=O)c3ccc(F)c(Cl)c3)CC2)nc1 ?
No

is_below(Growth Rate, -0.5) for CC(C)c1noc(N2CCC(COc3ccc(-c4ccc(S(C)(=O)=O)cc4)nc3)CC2)n1 ?
Yes

is_below(Growth Rate, -0.5) for CC(C)Oc1ccc(F)c(-c2cnc(N)c(C(=O)Nc3cnccc3N3CCC[C@@H](C(=O)O)C3)n2)c1 ?
Yes

New cases:
is_below(Growth Rate, -0.5) for Cc1nc[nH]c1CCN.Cl ?
No

is_below(Growth Rate, -0.5) for Cc1c(C(=O)Nc2ccc(N3C[C@@H](C)O[C@@H](C)C3)nc2)cccc1-c1ccc(OC(F)(F)F)cc1 ?
No

is_below(Growth Rate, -0.5) for Cc1ccc(CNc2ncnc3ccc(-c4ccc(CO)o4)cc23)o1 ?
Yes

---

- Tested on: HEK-293T
- MEASUREMENT DESCRIPTION: Incucyte cell viability with HEK293T; note: unitless GR value; below 1 slowed growth and below 0 cell loss
- Type: toxicity, cell-based
- CONDITION CONTEXT: human, 6 h, 10 µM, compound concentration 10 uM, replicate number 1, timepoint 6 hours
*1 amine or outer side, *2 acyl side, *3 side chain or, on linkers, in order; H or OH if unused. Where a SMILES comes first, the peptide text is derived from it. Bridges are numbered along the chain shown (N, C = ends). X1 = O=C(CCC[*:2])[*:1]
Growth Rate values, listed per item
Field format: numeric only.

Examples from the recorded data:
Return the recorded Growth Rate value; entry: O=C1NCc2ccc3c(-c4cccc(Cl)c4)c[nH]c3c21
-0.52

Return the recorded Growth Rate value; entry: Cc1cccc(NC(=O)CN2CCC(c3ccccn3)CC2)c1.Cl.Cl
0.47

Return the recorded Growth Rate value; entry: COc1cc2nc(N3CCN(C(=O)c4ccco4)CC3)nc(N)c2cc1OC.Cl [PRAZOSIN HYDROCHLORIDE]
0.79

Return the recorded Growth Rate value; entry: Cc1ccc2c(c1CCC(=O)O)CC[C@@H](NS(=O)(=O)c1ccc(Cl)cc1)C2
0.87

Return the recorded Growth Rate value; entry: CCNC(=O)[C@H]1O[C@@H](n2cnc3c(N)ncnc32)[C@H](O)[C@@H]1O.O
0.74

New cases:
Return the recorded Growth Rate value; entry: O=C1NC(Nc2ccccc2)=N/C1=C\c1ccc2c(c1)OCO2
0.37

Return the recorded Growth Rate value; entry: CN[C@@H](C)C(=O)N[C@H](C(=O)N1CCC[C@H]1C(=O)Nc1snnc1-c1ccccc1)C1CCCCC1
0.43

Return the recorded Growth Rate value; entry: CCN1/C(=C/C(C)=O)Sc2ccc(OC(C)=O)cc21
0.5

Return the recorded Growth Rate value; entry: O=C1NC(=Nc2c(Cl)cccc2Cl)S/C1=C\c1ccc2nccnc2c1
0.34

Return the recorded Growth Rate value; entry: Nc1nc(Nc2ccccc2)nc2c1ncn2[C@@H]1O[C@H](CO)[C@@H](O)[C@H]1O
0.52

Return the recorded Growth Rate value; entry: CC[C@H](C)[C@@H]1NC(=O)[C@H](Cc2ccc(OC)cc2)NC(=O)CCCSC[C@@H](C(=O)N2CCC[C@H]2C(=O)N[C@@H](CC(C)C)C(=O)NCC(N)=O)NC(=O)[C@H](CC(N)=O)NC(=O)[C@H](CCC(N)=O)NC1=O [CARBETOCIN] (Y(Me)IQNCPLG-NH2; linker N-5 via X1)
1

Return the recorded Growth Rate value; entry: Cc1cc(Nc2ncc(Cl)c(Nc3ccccc3S(=O)(=O)C(C)C)n2)c(OC(C)C)cc1C1CCNCC1
-0.87

Return the recorded Growth Rate value; entry: COc1cc(/C=C/C(=O)NCCn2c(C)cc3ccccc32)cc(OC)c1OC
0.24

Return the recorded Growth Rate value; entry: Cc1cc(CN)cc(C)c1-c1ncn(C)c1-c1ccnc2cc(F)ccc12
0.86

Return the recorded Growth Rate value; entry: CC(C)COc1ccc(CNC(=O)N(Cc2ccc(F)cc2)C2CCN(C)CC2)cc1
-0.67

Return the recorded Growth Rate value; entry: COc1ccc(C(=O)N2CCN(C(=O)/C=C/c3ccc(Br)cc3)CC2)cc1
0.09
